- Tested on: HCV genotype 1b replicon
- experiment_description: HCV replicon assay, genotype 1b replicon EC50
- Assay type: cell-based, Hepatitis C virus
- assay_conditions: Hepatitis C virus, HCV replicon, genotype 1b; read-out: EC50 [gt-1b]
property: EC50

compound="COc1ccc2nc(C)c3c(c2n1)CC[C@]1(C[C@H]2C(=O)N[C@]4(C(=O)NS(=O)(=O)C5(C)CC5)C[C@H]4/C=C\\CCCCC[C@H](NC(=O)OC4(C)CCC4)C(=O)N2C1)O3 [Example 365]" property=EC50 result="4.93 nM"
compound="COCC1(S(=O)(=O)NC(=O)[C@@]23C[C@H]2/C=C\\CCCCC[C@H](NC(=O)OCC(C)C)C(=O)N2C[C@@]4(CCc5c(c(C(F)(F)F)nc6ccc(OC)cc56)O4)C[C@H]2C(=O)N3)CC1 [Example 473]" property=EC50 result="2.27 nM"
compound="CC(C)(C)OC(=O)N[C@H]1CCCCC/C=C\\[C@@H]2C[C@@]2(C(=O)NS(=O)(=O)C2(C)CC2)NC(=O)[C@@H]2C[C@]3(CCc4c(c(C(F)(F)F)nc5ccc(Cl)cc45)O3)CN2C1=O [Example 378]" property=EC50 result="3.59 nM"
compound="COc1ccnc(N[C@H]2CCCCC/C=C\\[C@@H]3C[C@@]3(C(=O)NS(=O)(=O)C3(C)CC3)NC(=O)[C@@H]3C[C@]4(CCc5c(c(C)nc6ccc(OC)cc56)O4)CN3C2=O)c1 [Example 432]" property=EC50 result="7.5 nM"
compound="CC(C)(C)OC(=O)N[C@H]1CCCCC/C=C\\[C@@H]2C[C@@]2(C(=O)NS(=O)(=O)C2(C)CC2)NC(=O)[C@@H]2C[C@]3(CCc4c(c(C(F)(F)F)nc5ccc(OCCN6CC(F)(F)C6)cc45)O3)CN2C1=O [Example 518]" property=EC50 result="0.726 nM"
compound="Cc1nc2ccccc2c2c1O[C@]1(CC2)C[C@H]2C(=O)N[C@]3(C(=O)NS(=O)(=O)C4(C)CC4)C[C@H]3/C=C\\CCCCC[C@H](Nc3nccs3)C(=O)N2C1 [Example 360]" property=EC50 result="140 nM"
compound="CC(C)(C)COC(=O)N[C@H]1CCCCC/C=C\\[C@@H]2C[C@@]2(C(=O)NS(=O)(=O)C2(C)CC2)NC(=O)[C@@H]2C[C@]3(CCc4c(c(C(F)(F)F)nc5ccc(Cl)cc45)O3)CN2C1=O [Example 386]" property=EC50 result="49.6 nM"
compound="COCCCOc1ccc2nc(C)c3c(c2c1)CC[C@]1(C[C@H]2C(=O)N[C@]4(C(=O)NS(=O)(=O)C5(C)CC5)C[C@H]4/C=C\\CCCCC[C@H](NC(=O)OCC(C)(C)C)C(=O)N2C1)O3 [Example 453]" property=EC50 result="1.78 nM"
compound="COCCOc1ccc2nc(C)c3c(c2c1)CC[C@]1(C[C@H]2C(=O)N[C@]4(C(=O)NS(=O)(=O)C5(C)CC5)C[C@H]4/C=C\\CCCCC[C@H](NC(=O)OC(C)(C)C)C(=O)N2C1)O3 [Example 409]" property=EC50 result="4.73 nM"

###

- target_entity: HCV NS3/4A protease A156T mutant (Hepatitis C virus genotype 1b, UniProt P26663, A1182T)
- experiment_description: HCV NS3/4A protease time-resolved fluorescence (TRF) assay, Ki against A156T mutant
- Assay type: biochemical
- assay_conditions: NS3/4A protease TRF assay, A156T mutant enzyme 0.4 nM; HCl salt; read-out: IC50 [gt-1b A156T]
property: IC50 (nM)

compound="CCc1nc2ccc(OCCN3CCOCC3)cc2c2c1O[C@]1(CC2)C[C@H]2C(=O)N[C@]3(C(=O)NS(=O)(=O)C4(C)CC4)C[C@H]3/C=C\\CCCCC[C@H](NC(=O)OCC(C)C)C(=O)N2C1 [Example 515]" numeric_value=0.0575
